B1: TPR t1 (parent)
chain: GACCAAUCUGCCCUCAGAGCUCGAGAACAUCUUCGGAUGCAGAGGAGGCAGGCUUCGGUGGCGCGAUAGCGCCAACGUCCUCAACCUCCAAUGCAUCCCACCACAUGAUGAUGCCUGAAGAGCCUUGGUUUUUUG

- Variants of: B1
- Experiment description: polymerase ribozyme fitness, log enrichment relative to wild type (log ratio); higher = more active; in vitro selection for triplet polymerase activity
Assay readout: polymerase ribozyme fitness (log ratio)

Here is how some variants turned out for polymerase ribozyme fitness (log ratio).
Mutation string: C11U C12G C28U U32C C49A C56G
polymerase ribozyme fitness (log ratio): -2.91
//
Mutation string: C82G A108G A111G A121C
polymerase ribozyme fitness (log ratio): -5.85
//
Mutation string: U9C G69U G71U U92A
polymerase ribozyme fitness (log ratio): -3.04
//
Mutation string: G63A C98G
polymerase ribozyme fitness (log ratio): -6.74
//
Mutation string: C22U C82U
polymerase ribozyme fitness (log ratio): -4.56

Problem: Look up polymerase ribozyme fitness (log ratio) of C11G A41C and report it.
Solution: -0.501

Problem: Look up polymerase ribozyme fitness (log ratio) of G57U G61C U78G C114U A118U and report it.
Solution: -5.83
